Target: Diamine oxidase [copper-containing] (Sus scrofa)
Assay: Inhibitory activity against Swine kidney diamine oxidase (SKDAO)
parameter: Ki (µM)

[1] CC(=O)N1N=C(c2ccccc2O)CC1c1ccccc1C (centres undefined)
[2] CC(=O)N1N=C(c2ccc(O)cc2O)CC1c1cccc(C)c1 (centres undefined)
[3] CC(=O)N1N=C(c2ccccc2O)CC1c1cccc(C)c1 (centres undefined)
[4] CC(=O)N1N=C(c2ccc(O)cc2O)CC1c1ccccc1C (centres undefined)
Q: Exam item: list the entries in increasing order of Ki. Answer by naming the labels in the order asked.
Result: 1, 3, 2, 4
